Target: T1, CRBN, Q96SW2;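 further: pooled lentiviral library of zinc finger degron-EGFP fusions in mCherry-positive Jurkat cells, FACS-sorted after compound exposure, with degron abundance counted by next-generation sequencing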
T1 chain: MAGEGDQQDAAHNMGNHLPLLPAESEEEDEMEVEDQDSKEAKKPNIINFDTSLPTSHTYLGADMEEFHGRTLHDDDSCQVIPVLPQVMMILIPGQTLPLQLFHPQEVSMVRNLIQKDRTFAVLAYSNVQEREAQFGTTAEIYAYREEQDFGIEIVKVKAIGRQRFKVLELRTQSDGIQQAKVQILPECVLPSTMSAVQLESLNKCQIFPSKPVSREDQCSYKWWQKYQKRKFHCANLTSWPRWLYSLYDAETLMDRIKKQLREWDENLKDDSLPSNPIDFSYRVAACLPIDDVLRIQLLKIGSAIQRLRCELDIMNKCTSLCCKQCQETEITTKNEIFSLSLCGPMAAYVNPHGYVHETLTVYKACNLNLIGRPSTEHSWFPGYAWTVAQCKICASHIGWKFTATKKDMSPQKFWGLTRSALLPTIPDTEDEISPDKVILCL
Experiment: log2 fold change of degron read counts, EGFP-low vs EGFP+ sorted cells (limma voom), compound-induced degradation; higher = more compound-induced degradation of the degron-EGFP fusion; degrons are variants of IKZF1/3 zinc finger 2; compound dose not given here
Details: Jurkat; 18 h; compound: compound 22 (5-morpholino-thalidomide)
The full ranking holds about 8,300 sequences; the median of “log2 fold change of degron read counts, EGFP-low vs EGFP+ sorted cells (limma voom), compound-induced degradation” is about -1.1, and the highest 2% start at about 3.2. Only a selection was taken, and the highest values are over-represented in it overall.

>  <sequence record>
FKCDQCGAQFTQKGNLLRHIKL [46F_47K_49D_50Q_52G_53A_54Q_55F_67L_, Q9UKT9]

>  <log2 fold change of degron read counts>
-3.7

$$$$
>  <sequence record>
FECPVCGARFTQKGNLLRHIKL [46F_47E_49P_50V_52G_53A_54R_55F_67L_, Q9UKT9]

>  <log2 fold change of degron read counts>
-0.349

$$$$
>  <sequence record>
FNCNICGAIFTQKGNLLRHIKL [46F_47N_49N_50I_52G_53A_54I_55F_67L_, Q9UKT9]

>  <log2 fold change of degron read counts>
-1.24

$$$$
>  <sequence record>
FECNQCGRDFTQKGNLLRHIKL [46F_47E_49N_50Q_52G_53R_54D_55F_67L_, Q9UKT9]

>  <log2 fold change of degron read counts>
-3.55

$$$$
>  <sequence record>
FSCDVCGALFTQKGNLLRHIKL [46F_47S_49D_50V_52G_53A_54L_55F_67L_, Q9UKT9]

>  <log2 fold change of degron read counts>
-1.66

$$$$
>  <sequence record>
FHCPVCGARFTQKGNLLRHIKL [46F_47H_49P_50V_52G_53A_54R_55F_67L_, Q9UKT9]

>  <log2 fold change of degron read counts>
2.23

$$$$
>  <sequence record>
FVCPVCGARFTQKGNLLRHIKL [46F_47V_49P_50V_52G_53A_54R_55F_67L_, Q9UKT9]

>  <log2 fold change of degron read counts>
2.18

$$$$
>  <sequence record>
FDCPVCGARFTQKGNLLRHIKL [46F_47D_49P_50V_52G_53A_54R_55F_67L_, Q9UKT9]

>  <log2 fold change of degron read counts>
1.66

$$$$
>  <sequence record>
FFCPVCGARFTQKGNLLRHIKL [46F_47F_49P_50V_52G_53A_54R_55F_67L_, Q9UKT9]

>  <log2 fold change of degron read counts>
3.29

$$$$
>  <sequence record>
FSCEICGHVFTQKGNLLRHIKL [46F_47S_49E_50I_52G_53H_54V_55F_67L_, Q9UKT9]

>  <log2 fold change of degron read counts>
-2.93

$$$$
>  <sequence record>
FRCNICGAVFTQKGNLLRHIKL [46F_47R_49N_50I_52G_53A_54V_55F_67L_, Q9UKT9]

>  <log2 fold change of degron read counts>
-0.828

$$$$
>  <sequence record>
FVCEICGARFTQKGNLLRHIKL [46F_47V_49E_50I_52G_53A_54R_55F_67L_, Q9UKT9]

>  <log2 fold change of degron read counts>
2.43

$$$$
>  <sequence record>
FQCPVCGARFTQKGNLLRHIKL [46F_47Q_49P_50V_52G_53A_54R_55F_67L_, Q9UKT9]

>  <log2 fold change of degron read counts>
2.27

$$$$
>  <sequence record>
FSCPICGRAFTQKGNLLRHIKL [46F_47S_49P_50I_52G_53R_54A_55F_67L_, Q9UKT9]

>  <log2 fold change of degron read counts>
-1.1

$$$$
>  <sequence record>
FACPVCGARFTQKGNLLRHIKL [46F_47A_49P_50V_52G_53A_54R_55F_67L_, Q9UKT9]

>  <log2 fold change of degron read counts>
2.28

$$$$
